These data points were gathered from patent US7285567B2.

Assay: Cytotoxicity in 2.2.15 cells (neutral red dye uptake)
Assay type: cell-based
Details: human, 2-fold depression of neutral red dye uptake
Method: Anti-Hepatitis B Virus (HBV) analyses and an assessment of cytotoxicity were performed in a 9-day assay in the chronically-producing HBV human hepatoblastoma cell line, 2.2.15, as previously described (Korba, B. E. & Gerin, J. L. Use of a standardized cell culture assay to assess activities of nucleosides analogues against hepatitis B virus replication. Antivir. Res. 19, 55-70 (1992)). […]
Consider the following compounds; for each one, report its CC50 at 9 day.

Take each entry in turn and give its CC50 at 9 day.
1. Nc1ccn([C@@H]2CS[C@H](CO)O2)c(=O)n1 [Lamivudine, reference compound]
2. CC(=O)Oc1c(C)cccc1C(=O)Nc1ncc(Br)s1 [RM-4803]
3. Cc1cccc(C(=O)Nc2ncc(Br)s2)c1O [RM-4819]

["2.23 mM", "> 1 mM", "> 1 mM"]

====

tested on: H3N2 influenza virus, type A; test: Multiple cycle CPE inhibition assay on MDCK cell monolayers; assay type: cell-based; settings: 0% EMEM + Hepes + Trypsin, microscopic reading, read-out: EC50, Microscopic
Exercise: for every item that follows, state its recorded EC50.
One number for each entry, in µg/mL.

CC(=O)Oc1c(C)cccc1C(=O)Nc1ncc(Br)s1 = 0.45

For every item in the list below, what is its measured EC50?
1. COc1cccc(C(=O)Nc2ncc(Br)s2)c1OC(C)=O
2. CC(=O)Oc1c(C)cccc1C(=O)Nc1ncc(Cl)s1

0.46
0.93

====

Would you kindly list EC50 for each of these compounds?
test system: Paramyxovirus: Sendai virus; assay: microbe, parasite or virus in culture; assay type: cell-based; conditions: Respirovirus muris; Sendai virus, 37RC cell culture (Table 1)
One number for each entry, in nM.

CC(=O)Oc1c(C)cccc1C(=O)Nc1ncc(Br)s1 = 1100

Here's the next entry for you.
Using the record for `Cc1cccc(C(=O)Nc2ncc(Br)s2)c1O` , report its EC50. 1300
